Cited source: the supplement of paper PMC8728848

assayedSystem: Gal(b1-4)GlcNAc(b1-3)GalNAc
test: glycan array binding signal (z-score within array); higher = stronger binding
assaySetup: glycan notation: IUPAC condensed, linker removed
Many of the other results were omitted from the sample, so the strongest signals are more common in it than they were.
measurementLabel: glycan array binding signal (z-score)

binder | measurementLabel | valueReported
ConA (Canavalia ensiformis), P02866 (protein) MAISKKSSLFLPIFTFITMFLMVVNKVSSSTHETNALHFMFNQFSKDQKDLILQGDATTGTDGNLELTRVSSNGSPQGSSVGRALFYAPVHIWESSAVVASFEATFTFLIKSPDSHPADGIAFFISNIDSSIPSGSTGRLLGLFPDANVIRNSTTIDFNAAYNADTIVAVELDTYPNTDIGDPSYPHIGIDIKSVRSKKTAKWNMQNGKVGTAHIIYNSVDKRLSAVVSYPNADSATVSYDVDLDNVLPEWVRVGLSASTGLYKETNTILSWSFTSKLKSNEIPDIATVV | glycan array binding signal (z-score) | -0.228
